MEASUREMENT_PROTOCOL: Half life at the pH 7.4
Assay type: ADME
CONDITIONS_USED: buffer

{"STRUCTURE_AS_SMILES": "CC(C)NC(=O)OCc1c(COC(=O)NC(C)C)c(-c2cc[n+](C)c(F)c2)n2c1CCC2.[I-]", "half-life": "20.5 min"}
{"STRUCTURE_AS_SMILES": "CC(C)NC(=O)OCc1c(COC(=O)NC(C)C)c(-c2ccn(C)c(=O)c2)n2c1CCC2", "half-life": "53.5 min"}

###

MEASUREMENT_PROTOCOL: Half life of the compound
Type: ADME
ASSAY_ENDPOINT: half-life (h)

{"STRUCTURE_AS_SMILES": "Cc1ccc(F)[n+](C)c1.O=S(=O)([O-])C(F)(F)F", "SCALE_UNIT": "h", "ENDPOINT_RESULT": 0.19}
{"STRUCTURE_AS_SMILES": "Cc1cc(Br)c(Cl)[n+](C)c1.O=S(=O)([O-])C(F)(F)F", "SCALE_UNIT": "h", "ENDPOINT_RESULT": 17}
{"STRUCTURE_AS_SMILES": "CCOC(=O)c1cc(Cl)[n+](C)c(Cl)c1.CS(=O)(=O)[O-]", "SCALE_UNIT": "h", "ENDPOINT_RESULT": 2.1}
{"STRUCTURE_AS_SMILES": "CCOC(=O)c1cc[n+](C)c(Br)c1.O=S(=O)([O-])C(F)(F)F", "SCALE_UNIT": "h", "ENDPOINT_RESULT": 57.7}
{"STRUCTURE_AS_SMILES": "Cc1cc(Cl)c(Cl)[n+](C)c1.O=S(=O)([O-])C(F)(F)F", "SCALE_UNIT": "h", "ENDPOINT_RESULT": 12.6}
{"STRUCTURE_AS_SMILES": "CCOC(=O)c1cc[n+](C)c(Cl)c1.O=S(=O)([O-])C(F)(F)F", "SCALE_UNIT": "h", "ENDPOINT_RESULT": 6}
{"STRUCTURE_AS_SMILES": "Cc1ccc(Cl)[n+](C)c1.O=S(=O)([O-])C(F)(F)F", "SCALE_UNIT": "h", "ENDPOINT_RESULT": 269}

###

MEASUREMENT_PROTOCOL: Half life at the concentration of 0.025 M.
Format: ADME
ASSAY_ENDPOINT: half-life (min)

{"STRUCTURE_AS_SMILES": "CC(C)NC(=O)OCc1c(COC(=O)NC(C)C)c(-c2ccn(C)c(=O)c2)n2c1CCC2", "ASSAY_ENDPOINT": "half-life", "ENDPOINT_RESULT": 20.3}

###

MEASUREMENT_PROTOCOL: Half life at the pH 7.0
Format: ADME
CONDITIONS_USED: buffer
ASSAY_ENDPOINT: half-life (min)

{"STRUCTURE_AS_SMILES": "CC(C)NC(=O)OCc1c(COC(=O)NC(C)C)c(-c2cc[n+](C)c(F)c2)n2c1CCC2.[I-]", "ASSAY_ENDPOINT": "half-life", "ENDPOINT_RESULT": 33.8}

###

MEASUREMENT_PROTOCOL: Half life at the pH 5.0
Type: ADME
CONDITIONS_USED: buffer
ASSAY_ENDPOINT: half-life

{"STRUCTURE_AS_SMILES": "CC(C)NC(=O)OCc1c(COC(=O)NC(C)C)c(-c2ccn(C)c(=O)c2)n2c1CCC2", "ENDPOINT_RESULT": "50 min"}
